Target: Abl(h) (Homo sapiens, UniProt P00519)
Sequence (P00519 whole entry): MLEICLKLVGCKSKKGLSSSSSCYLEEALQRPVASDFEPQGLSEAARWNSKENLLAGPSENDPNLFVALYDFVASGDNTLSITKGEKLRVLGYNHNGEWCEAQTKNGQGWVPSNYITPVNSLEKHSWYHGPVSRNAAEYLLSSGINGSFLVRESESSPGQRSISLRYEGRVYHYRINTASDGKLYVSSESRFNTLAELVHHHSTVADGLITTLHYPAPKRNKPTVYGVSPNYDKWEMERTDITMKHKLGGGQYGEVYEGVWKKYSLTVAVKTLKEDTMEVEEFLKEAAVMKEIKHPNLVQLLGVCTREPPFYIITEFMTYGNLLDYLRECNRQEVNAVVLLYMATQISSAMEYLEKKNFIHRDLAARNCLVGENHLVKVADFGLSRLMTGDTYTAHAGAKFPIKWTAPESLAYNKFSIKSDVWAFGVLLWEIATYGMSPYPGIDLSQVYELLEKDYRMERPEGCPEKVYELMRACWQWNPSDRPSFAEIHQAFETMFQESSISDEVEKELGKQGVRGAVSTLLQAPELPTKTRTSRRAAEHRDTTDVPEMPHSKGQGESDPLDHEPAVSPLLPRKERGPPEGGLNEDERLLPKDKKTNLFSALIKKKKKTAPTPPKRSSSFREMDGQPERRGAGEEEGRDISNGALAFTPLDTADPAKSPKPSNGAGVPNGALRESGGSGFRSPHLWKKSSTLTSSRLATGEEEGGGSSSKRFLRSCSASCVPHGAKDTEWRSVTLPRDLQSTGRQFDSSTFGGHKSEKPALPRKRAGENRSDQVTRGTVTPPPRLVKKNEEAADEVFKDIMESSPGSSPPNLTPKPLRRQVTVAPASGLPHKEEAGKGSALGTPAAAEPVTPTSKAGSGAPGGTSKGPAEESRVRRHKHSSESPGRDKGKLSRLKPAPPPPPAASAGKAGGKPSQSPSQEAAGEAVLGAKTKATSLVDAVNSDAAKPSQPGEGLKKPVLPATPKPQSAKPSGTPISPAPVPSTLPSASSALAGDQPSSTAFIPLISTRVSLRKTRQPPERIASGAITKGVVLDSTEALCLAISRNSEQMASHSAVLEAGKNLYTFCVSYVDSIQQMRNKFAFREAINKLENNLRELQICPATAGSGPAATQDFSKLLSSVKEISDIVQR
Assay: KinaseProfiler kinase assay
Format: biochemical
test-readout: inhibition at 1 µM (%)

1) Cc1cc2c(F)c(Oc3nc(Nc4cc(C5CC5)[nH]n4)cc(N4CCN(CC(F)(F)F)CC4)n3)ccc2[nH]1 : 108
2) C/C=C/c1cc(Nc2cc(N3CCNCC3)nc(Oc3cc(F)c4[nH]c(C)cc4c3F)n2)n[nH]1 : 112
3) CCN1CCN(c2cc(Nc3cc(C)[nH]n3)nc(Oc3cc(F)c4[nH]c(C)cc4c3F)n2)CC1 : 113
4) Cc1cc2c(F)c(Oc3nc(Nc4cc(C5CC5)[nH]n4)cc(N4CCNCC4)n3)ccc2[nH]1 : 111
5) C/C=C/c1cc(Nc2cc(N3CCOCC3)nc(Oc3ccc4[nH]c(C)cc4c3F)n2)n[nH]1 : 112
6) Cc1cc2c(F)c(Oc3nc(Nc4cc(C5CC5)[nH]n4)cc(N4CCN(S(C)(=O)=O)CC4)n3)ccc2[nH]1 : 108
7) C/C=C/c1cc(Nc2cc(N3CCN(C(C)=O)CC3)nc(Oc3ccc4[nH]c(C)cc4c3F)n2)n[nH]1 : 111
8) C/C=C/c1cc(Nc2cc(N3CCN(C)CC3)nc(Oc3ccc4[nH]c(C)cc4c3Cl)n2)n[nH]1 : 113
9) Cc1cc2c(F)c(Oc3nc(Nc4cc(C5CC5)[nH]n4)cc(N4CCNC(=O)C4)n3)ccc2[nH]1 : 108
10) Cc1cc2c(F)c(Oc3nc(Nc4cc(C5CC5)[nH]n4)cc(N4CCN(CCO)CC4)n3)cc(F)c2[nH]1 : 110
11) Cc1cc2c(F)c(Oc3nc(Nc4cc(C5CC5)[nH]n4)cc(N4CCC(F)CC4)n3)ccc2[nH]1 : 108
12) C/C=C/c1cc(Nc2cc(N3CCN(C)CC3)nc(Oc3ccc4c(cc(C)n4C)c3F)n2)n[nH]1 : 115
13) Cc1cc2c(F)c(Oc3nc(Nc4cc(C5CC5)[nH]n4)cc(N4CCN(c5ccncc5)CC4)n3)ccc2[nH]1 : 108
14) C/C=C/c1cc(Nc2cc(N3CCC(O)CC3)nc(Oc3cc(F)c4[nH]c(C)cc4c3F)n2)n[nH]1 : 110
15) Cc1cc2c(F)c(Oc3nc(Nc4cc(C5CC5)[nH]n4)cc(N4CCN(c5cccnc5)CC4)n3)ccc2[nH]1 : 109
16) COCC1CCN(c2cc(Nc3cc(C4CC4)[nH]n3)nc(Oc3ccc4[nH]c(C)cc4c3F)n2)C1 (centres unmarked) : 94
17) Cc1cc(Nc2cc(N3CCNCC3)nc(Oc3cc(F)c4[nH]c(C)cc4c3F)n2)n[nH]1 : 109
18) C/C=C/c1cc(Nc2cc(N3CCC(N(CC)CC)C3)nc(Oc3cc(F)c4[nH]c(C)cc4c3F)n2)n[nH]1 (centres unmarked) : 111
19) Cc1cc2c(F)c(Oc3nc(Nc4cc(C5CC5)[nH]n4)cc(N4CCN(C)CC4)n3)cc(F)c2[nH]1 : 110
20) C/C=C/c1cc(Nc2cc(N3CCN(CC)CC3)nc(Oc3cc(F)c4[nH]c(C)cc4c3F)n2)n[nH]1 : 113
21) Cc1cc2c(F)c(Oc3nc(Nc4cc(C5CC5)[nH]n4)cc(N4CCOC(CN(C)C)C4)n3)ccc2[nH]1 (centres unmarked) : 110
22) Cc1cc2c(F)c(Oc3nc(Nc4cc(C5CC5)[nH]n4)cc(N4CCN(C)CC4)n3)ccc2[nH]1 : 112
23) Cc1cc2c(F)c(Oc3nc(Nc4cc(C5CC5)[nH]n4)cc(N4CCN(CCN(C)C)CC4)n3)ccc2[nH]1 : 110
24) Cc1cc2c(F)c(Oc3nc(Nc4cc(C5CC5)[nH]n4)cc(N4CCC(N(C)C)C4)n3)ccc2[nH]1 (centres unmarked) : 108
25) Cc1cc2c(F)c(Oc3nc(Nc4cc(C5CC5)[nH]n4)cc(N4CCC(O)CC4)n3)ccc2[nH]1 : 107
26) C/C=C/c1cc(Nc2cc(N3CCN(C)CC3)nc(Oc3cc(F)c4[nH]c(C)cc4c3F)n2)n[nH]1 : 112
27) Cc1cc2c(F)c(Oc3nc(Nc4cc(C5CC5)[nH]n4)cc(N4CCNC(CO)C4)n3)ccc2[nH]1 (centres unmarked) : 111
28) Cc1cc2c(F)c(Oc3nc(Nc4cc(C5CC5)[nH]n4)cc(N4CCOCC4)n3)ccc2n1C : 114
29) C/C=C/c1cc(Nc2cc(N3CCN(CCOC)CC3)nc(Oc3ccc4[nH]c(C)cc4c3F)n2)n[nH]1 : 108
